Would you mind telling me the reported AC50 of each entry?
# assayed-system: 3',5'-cyclic-AMP phosphodiesterase 4D (Homo sapiens, UniProt Q08499); further: assay procedure not described here
# Sequence (Q08499 whole entry): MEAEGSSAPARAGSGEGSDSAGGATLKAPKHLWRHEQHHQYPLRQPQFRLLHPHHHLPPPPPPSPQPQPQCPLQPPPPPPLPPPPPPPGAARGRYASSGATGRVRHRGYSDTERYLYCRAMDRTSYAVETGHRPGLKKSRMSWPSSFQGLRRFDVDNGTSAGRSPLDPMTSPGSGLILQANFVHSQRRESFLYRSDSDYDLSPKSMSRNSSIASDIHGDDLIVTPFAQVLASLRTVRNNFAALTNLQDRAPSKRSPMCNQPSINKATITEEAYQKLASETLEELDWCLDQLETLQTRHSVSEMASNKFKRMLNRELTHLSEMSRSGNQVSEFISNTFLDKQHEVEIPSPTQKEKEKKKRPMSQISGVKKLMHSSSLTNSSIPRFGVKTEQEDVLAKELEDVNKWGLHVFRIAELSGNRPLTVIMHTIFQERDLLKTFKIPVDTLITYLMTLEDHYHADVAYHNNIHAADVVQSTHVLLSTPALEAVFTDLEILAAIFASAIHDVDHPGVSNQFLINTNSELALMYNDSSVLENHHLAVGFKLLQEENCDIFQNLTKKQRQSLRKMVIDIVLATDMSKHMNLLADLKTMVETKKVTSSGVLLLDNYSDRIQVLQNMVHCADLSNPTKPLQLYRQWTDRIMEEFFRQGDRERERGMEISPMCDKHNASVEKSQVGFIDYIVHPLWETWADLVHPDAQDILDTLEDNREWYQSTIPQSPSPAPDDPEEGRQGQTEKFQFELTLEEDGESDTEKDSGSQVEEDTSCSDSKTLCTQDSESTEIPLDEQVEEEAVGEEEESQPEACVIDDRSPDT
# Format: functional

Please give measured AC50 of the following entry: `COC(=O)[C@H]1[C@H]2C[C@@H]3c4[nH]c5cc(OC)ccc5c4CCN3C[C@H]2C[C@@H](OC(=O)/C=C/c2cc(OC)c(OC)c(OC)c2)[C@@H]1OC`
> 30 µM

Please give measured AC50 of the following entry: COc1cc2nc(N(C)CCCNC(=O)C3CCCO3)nc(N)c2cc1OC (configuration not stated)
> 30 µM

Please give measured AC50 of the following entry: `COc1cc2nc(N3CCN(C(=O)c4ccco4)CC3)nc(N)c2cc1OC`
> 30 µM

Please give measured AC50 of the following entry: `CCOC(=O)[C@H](CCc1ccccc1)N[C@@H](C)C(=O)N1[C@H](C(=O)O)C[C@@H]2CCC[C@@H]21`
> 30 µM

Please give measured AC50 of the following entry: CC(=O)O[C@H]1CC[C@@]2(C)C(=CC[C@@H]3[C@@H]2CC[C@]2(C)C(c4cccnc4)=CC[C@@H]32)C1 [ABIRATERONE ACETATE]
> 30 µM

Please give measured AC50 of the following entry: `C#C[C@]1(O)CC[C@H]2[C@@H]3[C@H](C)CC4=C(CCC(=O)C4)[C@H]3CC[C@@]21C`
6.9 µM

Please give measured AC50 of the following entry: `C[C@H]1CNCCc2ccc(Cl)cc21`
> 30 µM

Please give measured AC50 of the following entry: Cc1c(OCC(F)(F)F)ccnc1C[S+]([O-])c1nc2ccccc2[nH]1 (configuration not stated)
> 10 µM

Please give measured AC50 of the following entry: CN1C(=O)CCS(=O)(=O)C1c1ccc(Cl)cc1 (configuration not stated)
> 30 µM

Please give measured AC50 of the following entry: NS(=O)(=O)Cc1noc2ccccc12 [ZONISAMIDE]
> 30 µM

Please give measured AC50 of the following entry: CC(C)(C)NCC(O)COc1cccc2c1CCC(=O)N2 (configuration not stated)
> 30 µM

Please give measured AC50 of the following entry: `Cc1nnc2n1-c1ccc(Cl)cc1C(c1ccccc1Cl)=NC2`
33 µM

Please give measured AC50 of the following entry: `CCN1CCN(C(=O)N[C@@H](C(=O)N[C@@H]2C(=O)N3C(C(=O)O)=C(CSc4nnnn4C)CS[C@H]23)c2ccc(O)cc2)C(=O)C1=O`
> 30 µM

Please give measured AC50 of the following entry: `N#Cc1ccc([C@H]2CCc3cncn32)c(F)c1`
> 10 µM

Please give measured AC50 of the following entry: CC(C(=O)O)c1ccc(N2Cc3ccccc3C2=O)cc1 (configuration not stated)
> 30 µM

Please give measured AC50 of the following entry: `Cc1ccc(-n2nccn2)c(C(=O)N2CCN(c3nc4cc(Cl)ccc4o3)CC[C@H]2C)c1`
> 30 µM

Please give measured AC50 of the following entry: COc1ccc2c3c1O[C@H]1[C@@H](O)CC[C@H]4[C@@H](C2)N(C)CC[C@@]341 [DIHYDROCODEINE]
> 30 µM

These entries and their values trace back to ChEMBL document CHEMBL5291721.
